- STUDY_TARGET: Plasmodium berghei glutamine synthetase (rPbGS) (Plasmodium berghei)
- Construct: recombinant with N-terminal 6xHis tag, expressed in E. coli
- Sequence (A0A509ANX1 1-553): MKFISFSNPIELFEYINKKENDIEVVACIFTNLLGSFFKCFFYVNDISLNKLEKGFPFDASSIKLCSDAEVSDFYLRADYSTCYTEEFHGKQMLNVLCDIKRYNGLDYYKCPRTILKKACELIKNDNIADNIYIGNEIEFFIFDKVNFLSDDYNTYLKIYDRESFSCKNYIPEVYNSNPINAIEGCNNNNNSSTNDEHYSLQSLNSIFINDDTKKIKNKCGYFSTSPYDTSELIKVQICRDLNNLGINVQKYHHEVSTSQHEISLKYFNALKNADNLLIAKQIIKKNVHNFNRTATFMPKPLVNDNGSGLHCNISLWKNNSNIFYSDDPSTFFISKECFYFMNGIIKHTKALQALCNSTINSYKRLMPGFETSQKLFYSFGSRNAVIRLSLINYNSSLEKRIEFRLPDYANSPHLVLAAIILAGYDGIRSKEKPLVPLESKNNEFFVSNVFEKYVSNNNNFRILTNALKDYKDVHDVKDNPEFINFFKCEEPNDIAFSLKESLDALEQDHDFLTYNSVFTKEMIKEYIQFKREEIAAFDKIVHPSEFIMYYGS
- ASSAY_INFO: GS enzyme assay (Pi release/HPLC) with pre-incubation with ATP and MgCl2; kinetic Ki
Measured Ki accompanies every entry in the list below.
Enter your answer as a number in µM; do not include the unit.

>>> print(df.to_string())
                                   compound                              study_target  value_observed
0  CS(=N)(=O)CC[C@H](N)C(=O)O (some centres unmarked)  Plasmodium berghei glutamine synthetase (rPbGS) (Plasmodium berghei)            5.44

Now for another entry.
Exercise: Tell me the measured Ki of CP(=O)(O)CC[C@H](N)C(=O)O , please.
Solution: 8.07
